What max response was measured for each of the following?
# System: HEK293
# Protocol summary: Cytotoxic Profiling of Annotated Libraries Using Quantitative High-Throughput Screening (AID 1296008); further: nearly all actives have a fitted effect of over 60% in size; on max response: on the % scale 0 is the no-effect control and ±100 the full control effect
# Condition set: Five cell lines viability, CellTiter-Glo ATP luminescence, 48-72 h; active compounds read low
Results filed as inconclusive are left out.
// note: answer is a bare numeric in %

Report measured max response on HEK293; entry: O=C(NN1CCCC1)NS(=O)(=O)c1ccc(Cl)cc1
2.09

Report measured max response on HEK293; entry: O=C1c2ccccc2CCc2ccccc21
-2.77

Report measured max response on HEK293; entry: O=c1[nH]sc2cc(Cl)ccc12
-119

Report measured max response on HEK293; entry: COCCc1ccc(OCC2CO2)cc1 (configuration not stated)
1.88

Report measured max response on HEK293; entry: [O-][n+]1cccc(/C(Cl)=N/OC[C@@H](O)CN2CCCCC2)c1
-1.36

Report measured max response on HEK293; entry: Cc1ccc2c(Cl)cc(Cl)c(O)c2n1
-23.5

Report measured max response on HEK293; entry: CO/N=C(\C(=O)O)c1csc(NC(=O)CCl)n1
-4.55

----------
# Tested target: Cytochrome P450 2D6 (Homo sapiens)
# Protocol summary: Cytochrome P450 family 2 subfamily D member 6 (CYP2D6) small molecule antagonists: luciferase biochemical (cell-free) qHTS assay (AID 1645840); further: nearly all actives have a fitted effect of over 55% in size
# Condition set: P450-Glo CYP2D6 enzyme, luciferin luminescence, 1 h; series mostly up to 57.4 µM
Records with an inconclusive call do not appear. Calls of active or inactive are those of the source. Calls follow the shape of the dose curve; as a rule, active = well fitted inhibition curve with a large enough effect in the repeat runs; inconclusive = weak or mixed curves; inactive = flat fitted curve, though single readings scatter.
Give one outcome, nothing more. List: Yes = active, No = inactive

Which outcome was entered for the molecule COc1cc2nc(Cl)nc(N)c2cc1OC in this test?
No

Which outcome was entered for the molecule CO[C@@H]1[C@@H](OC)[C@H](C)[C@@](O)(CC(=O)O)O[C@H]1[C@H](C)[C@H]1O[C@@]2(CC[C@@](C)([C@H]3CC[C@@](C)([C@@H]4O[C@@H]([C@H]5O[C@](C)(O)[C@H](C)C[C@@H]5C)C[C@@H]4OC4C[C@H](OC)[C@@H](OC)[C@H](C)O4)O3)O2)C[C@H](O)[C@H]1C (some centres undefined) in this test?
No

Which outcome was entered for the molecule Cn1c(=O)c2c(ncn2CC(=O)O)n(C)c1=O in this test?
No

Which outcome was entered for the molecule Cc1nc([N+](=O)[O-])cn1-c1ccc([N+](=O)[O-])cc1 in this test?
No

Which outcome was entered for the molecule NS(=O)(=O)c1cc(C(=O)NN2C[C@H]3[C@H]4CCC(C4)[C@H]3C2)ccc1Cl in this test?
No

Which outcome was entered for the molecule CC(NCCC(c1ccccc1)c1ccccc1)c1ccccc1 (centres undefined) in this test?
Yes

Which outcome was entered for the molecule CC(=O)CC/C=C(\C)CC/C=C(\C)CC/C=C(\C)CCC=C(C)C in this test?
No

Which outcome was entered for the molecule CCC(C(=O)OCCN1CCOC(c2ccccc2)C1C)c1ccccc1 (centres undefined) in this test?
Yes

Which outcome was entered for the molecule CCOc1ncc(F)c(=O)[nH]1 in this test?
No

Which outcome was entered for the molecule C[C@H]1NCc2cc(-c3ccc4c(=O)c(C(=O)O)cn(C5CC5)c4c3OC(F)F)ccc21 in this test?
No

Which outcome was entered for the molecule CC(=O)OCC(=O)[C@@]1(O)CCC2C3CCC4=CC(=O)CC[C@]4(C)C3[C@@H](O)C[C@@]21C (some centres undefined) in this test?
No

Which outcome was entered for the molecule CCCCCCCCCCCCCCCCCCN(C)C in this test?
No

Which outcome was entered for the molecule NS(=O)(=O)c1cc2c(cc1Cl)CN(C1CCCCC1)C2=O in this test?
No

Which outcome was entered for the molecule Cc1cccc(OCC(O)CNC(C)(C)C)c1C (centres undefined) in this test?
Yes

Which outcome was entered for the molecule OCCCc1ccccc1 in this test?
No

Which outcome was entered for the molecule CNC(=O)c1cnn(-c2nc(N)c3ncn([C@@H]4O[C@H](CO)[C@@H](O)[C@H]4O)c3n2)c1 in this test?
No

Which outcome was entered for the molecule Cc1cccc(C)c1NC(=O)c1cc(S(N)(=O)=O)c(Cl)cc1O in this test?
No

Which outcome was entered for the molecule O=P(O)(O)OCC(O)CO (centres undefined) in this test?
No

Which outcome was entered for the molecule CC(C)C(C)(C)C(C)(C)C(C)(C)S in this test?
No

----------
# System: N140
# Protocol summary: qHTS profiling for inhibitors of Plasmodium falciparum proliferation (AID 504749); further: nearly all actives have a fitted effect of over 60% in size
# Condition set: P. falciparum in erythrocytes, SYBR Green DNA, 72 h; series mostly up to 28.7 µM
Results filed as inconclusive are left out. Active and inactive are the calls of the source. Calls come from the whole dose curve; as a rule, active = well fitted inhibition curve with a large enough effect; inconclusive = small, poorly fitted or top-dose-only effect; inactive = flat fitted curve, though single readings scatter.
Give one outcome, nothing more. List: 1 (active), 0 (inactive)

Which outcome was entered for the molecule Nc1ncnc2nc[nH]c12 in this test?
0

Which outcome was entered for the molecule O=C(Nc1ccc(Cl)cc1)Nc1ccc(Cl)c(Cl)c1 in this test?
1

Which outcome was entered for the molecule CC(NCCC(c1ccccc1)c1ccccc1)c1ccccc1 (stereo not given) in this test?
1

Which outcome was entered for the molecule CN1CCCN(C(c2ccccc2)c2ccc(Cl)cc2)CC1 (stereo not given) in this test?
1

Which outcome was entered for the molecule Nc1c2ccccc2nc2ccccc12 in this test?
1

----------
# System: PA-1
# Protocol summary: Primary qHTS to identify gynecologic anti-cancer compounds using libraries of approved drugs and bioactive compounds (AID 1345084); further: nearly all actives have a fitted effect of over 55% in size
# Condition set: Gynecologic cancer cell panel viability, ATPlite luminescence, 48 h; series mostly up to 57.5 µM
Results filed as inconclusive are left out. Activity calls are given as the source filed them. Calls follow the shape of the dose curve; as a rule, active = well fitted cell-killing curve with a large enough effect; inconclusive = small, poorly fitted or top-dose-only effect, or effect the other way; inactive = flat fitted curve, though single readings scatter.
Give one outcome, nothing more. List: true (active), false (inactive)

Which outcome was entered for the compound CCOC(=O)c1cc(=O)c2c(OCC(COc3cccc4oc(C(=O)OCC)cc(=O)c34)OC(=O)[C@@H](N)CCCCN)cccc2o1 in this test?
false

Which outcome was entered for the compound CSc1ccc(/C=C2/C(C)=C(CC(=O)O)c3cc(F)ccc32)cc1 in this test?
false

Which outcome was entered for the compound Nc1ncnc2nc[nH]c12 in this test?
false

Which outcome was entered for the compound CCCCCCCCCCCCCCCCCCNC(=O)OC1CCN(C(=O)OC[C@H](COC(=O)N(Cc2cccc[n+]2CC)C(=O)c2ccccc2OC)OC)CC1 in this test?
true

Which outcome was entered for the compound COC(=O)CCCCC(CCSS/C(CCO)=C(\C)N(C=O)Cc1cnc(C)nc1N)SC(C)=O (stereo not given) in this test?
false

Which outcome was entered for the compound CCCc1ccc(OCC(=O)N2CCN(C(=O)COc3ccc(CCC)cc3OC)CC2)c(OC)c1 in this test?
false

Which outcome was entered for the compound CO[C@]1(NC(=O)CSC(F)F)C(=O)N2C(C(=O)O)=C(CSc3nnnn3CCO)CO[C@H]21 in this test?
false

Which outcome was entered for the compound CCN(CC)CC(=O)Oc1ccc(NC(C)=O)cc1 in this test?
false

Which outcome was entered for the compound CC(=O)OCC[N+](C)(C)C in this test?
false

Which outcome was entered for the compound Nc1c(I)cc(I)c(C(=O)N(CCC(=O)O)c2ccccc2)c1I in this test?
false

Which outcome was entered for the compound Nc1c(NC/C=C\COc2cc(CN3CCCCC3)ccn2)c(=O)c1=O in this test?
false

Which outcome was entered for the compound CC1(C)O[C@@H]2C[C@H]3[C@@H]4C[C@H](F)C5=CC(=O)C=C[C@]5(C)[C@@]4(F)[C@@H](O)C[C@]3(C)[C@]2(C(=O)CO)O1 in this test?
false

Which outcome was entered for the compound Cc1ccc(CCn2c3c(c4cc(Cl)ccc42)CN(C)CC3)cn1 in this test?
false

Which outcome was entered for the compound CCOC(=O)C(=O)CCc1ccccc1 in this test?
false

Which outcome was entered for the compound CCCC(CCC)(C(=O)OCC)C(=O)OCC in this test?
false

Which outcome was entered for the compound Cc1[nH]cnc1-c1ccc(Cl)cc1 in this test?
false

Which outcome was entered for the compound CC(C)(C)c1nnc(NS(=O)(=O)c2ccccc2)s1 in this test?
false

Which outcome was entered for the compound Nc1ccc(O)cc1 in this test?
false

Which outcome was entered for the compound O=C(O)C(=O)Nc1cccc(-c2nn[nH]n2)c1 in this test?
false

Which outcome was entered for the compound c1ccc(C(O[C@H]2CCCN(CCc3ccc4c(c3)OCO4)C2)c2ccccc2)cc1 in this test?
false

----------
# System: HaCat
# Protocol summary: Cytotoxic Profiling of Annotated Libraries Using Quantitative High-Throughput Screening (AID 1296008); further: nearly all actives have a fitted effect of over 60% in size
# Condition set: Five cell lines viability, CellTiter-Glo ATP luminescence, 48-72 h
Records with an inconclusive call do not appear. Active and inactive are the calls of the source. The call rests on the fitted dose curve; in most records, active means well fitted inhibition curve with a large enough effect; inconclusive means small, poorly fitted or top-dose-only effect; inactive means flat fitted curve, though single readings scatter.
Readout: outcome

A selection of reference data follows.
Compound: CCC1=C[C@@H]2CN(C1)Cc1c([nH]c3ccccc13)[C@@](C(=O)OC)(c1cc3c(cc1OC)N(C)[C@H]1[C@@](O)(C(=O)OC)[C@H](OC(C)=O)[C@]4(CC)C=CCN5CC[C@]31[C@@H]54)C2
Readout: outcome
Readout value: inactive
--
Compound: CN(C(=O)C(Cl)Cl)c1ccc(OC(=O)c2ccco2)cc1
Readout: outcome
Readout value: inactive
--
Compound: Cc1oc(-c2ccccc2)nc1CCC(=O)c1ccc(CC2SC(=O)NC2=O)cc1 (stereo not drawn)
Readout: outcome
Readout value: inactive
--
Compound: CCCC(=O)OCOC(=O)C1=C(C)NC(C)=C(C(=O)OC)C1c1cccc(Cl)c1Cl (stereo not drawn)
Readout: outcome
Readout value: inactive
--
Compound: CCC(=O)O[C@]1(C(=O)COC)[C@@H](C)C[C@H]2[C@@H]3CCC4=CC(=O)C=C[C@]4(C)C3(F)[C@@H](O)C[C@@]21C (stereo partly drawn)
Readout: outcome
Readout value: inactive

Report measured outcome on HaCat; entry: O=C1CCCc2c(O)cccc21
inactive

Report measured outcome on HaCat; entry: CCCCC(O)/C=C(C)/C=C/C=C/C(=O)N1CCCC1=O (stereo not drawn)
inactive

Report measured outcome on HaCat; entry: O=c1[nH]c2ccccc2c(=O)n1CCCl
inactive

Data origin: PubChem BioAssay (NCATS)
